This collection of values is drawn from ChEMBL document CHEMBL5236653.

Listed compounds paired with reported Ratio IC50
assay: Selectivity index, ratio of IC50 for inhibition of human erythrocyte AChE to IC50 for inhibition of human serum BuChE
Respond with the number and no other words.

INSERT INTO assay_data (structure_string, quantity_kind, observed_measurement) VALUES
  ('COc1ccc2c(c1)c(C=O)cn2CCCCCCCN(C)Cc1ccc(O)cc1', 'Ratio IC50', 1.81),
  ('COc1ccc2c(c1)c(C=O)cn2CCCCCCCCN(C)Cc1ccc(O)cc1', 'Ratio IC50', 4.2),
  ('CN(CCCCCCCCCCCCn1cc(C=O)c2cc(O)ccc21)Cc1cccc(O)c1', 'Ratio IC50', 148);

**Q:** Bench note: what Ratio IC50 did "COc1ccc(CN(C)CCCCCCCCCCCCn2cc(C=O)c3cc(OC)ccc32)cc1" show?
**A:** 233

**Q:** I would be grateful if you could share the reported Ratio IC50 for "COc1ccc2c(c1)c(C=O)cn2CCCCCCCCCN(C)Cc1ccc(O)cc1" .
**A:** 16

**Q:** Entry under review: "COc1ccc2c(c1)c(C=O)cn2CCCCCCCCCN(C)Cc1cccc(O)c1" . Reported Ratio IC50?
**A:** 2.2
